# MEASUREMENT_PROTOCOL: Ratio of drug level in brain to plasma in rat at 10 mg/kg, ip after 2 hrs
# Format: ADME, organism-based
# Set-up: dose 10 mg/kg, route intraperitoneal
# EXPERIMENTAL_PARAMETERS: read-out: BPR
MEASURE: Kp at 2 h

(I) C[C@@H]1CCCN1CCCOc1ccc(C2=NNC(=O)[C@@H]3C[C@H]23)cc1
(II) C[C@@H]1CCCN1CCCOc1ccc(C2=NNC(=O)[C@H]3C[C@@H]23)cc1
Look at I and II . Which one has the lower recorded Kp at 2 h number? Output the label that corresponds to your choice.
I

---

# MEASUREMENT_PROTOCOL: Half life in monkey at 1 mg/kg, iv
# Type: ADME, organism-based, Macaca mulatta
# Parameters: dose 1 mg/kg, route intravenous
# EXPERIMENTAL_PARAMETERS: rhesus monkey, in vivo
MEASURE: half-life (min)
Field format: number, assumed min, no unit text.

What half-life value was documented for this compound, C[C@@H]1CCCN1CCCOc1ccc(C2=NNC(=O)[C@@H]3C[C@H]23)cc1 ?
462

---

# MEASUREMENT_PROTOCOL: Plasma protein binding in dog
# Format: ADME, cell-free, Canis lupus familiaris
# EXPERIMENTAL_PARAMETERS: read-out: PPB (converted)
MEASURE: fraction unbound

COMPOUND_STRUCTURE_STRING	fraction unbound
C[C@@H]1CCCN1CCCOc1ccc(C2=NNC(=O)[C@@H]3C[C@H]23)cc1	0.4
C[C@@H]1CCCN1CCCOc1ccc(C2=NNC(=O)[C@H]3C[C@@H]23)cc1	0.47

---

# TARGET_SYSTEM: Histamine H4 receptor (Homo sapiens, UniProt Q9H3N8)
MEASURE: Ki

Request body: readout Ki, system Histamine H4 receptor (Homo sapiens, UniProt Q9H3N8), query C[C@@H]1CCCN1CCCOc1ccc(C2=NNC(=O)[C@H]3C[C@@H]23)cc1 . Return the value.
> 10 µM

---

# MEASUREMENT_PROTOCOL: AUC (0 to t) in rat at 10 mg/kg, po
# Format: ADME, organism-based
# Set-up: dose 10 mg/kg, route oral
# EXPERIMENTAL_PARAMETERS: plasma
MEASURE: AUC(0-t) (ng·h/mL)

COMPOUND_STRUCTURE_STRING	UNIT_TAG	VAL
C[C@@H]1CCCN1CCCOc1ccc(C2=NNC(=O)[C@H]3C[C@@H]23)cc1	ng·h/mL	4660
C[C@@H]1CCCN1CCCOc1ccc(C2=NNC(=O)[C@@H]3C[C@H]23)cc1	ng·h/mL	5760

---

# MEASUREMENT_PROTOCOL: Volume of distribution at steady state in rat at 1 mg/kg, iv
# Assay type: ADME, organism-based
# Set-up: dose 1 mg/kg, route intravenous
# EXPERIMENTAL_PARAMETERS: in vivo, read-out: Vdss
MEASURE: Vd (L/kg)

(1) C[C@@H]1CCCN1CCCOc1ccc(C2=NNC(=O)[C@H]3C[C@@H]23)cc1
(2) C[C@@H]1CCCN1CCCOc1ccc(C2=NNC(=O)[C@@H]3C[C@H]23)cc1
Between these two entries, 1 and 2 , state which has the higher Vd. Output the label that corresponds to your choice.
1
(1: 2.5 L/kg, 2: 0.9 L/kg)
